Test system: SK-OV-3
Test: NCI one-dose SRB growth assay
Assay type: cell-based
Conditions: Homo sapiens; SK-OV-3 (Ovarian Cancer), 10^-5 M, 48 h; read-out: % Growth Inhibition (GI %)
METRIC_NAME: inhibition at 10 µM

Field: example entries. Status: answers known.
- MOLECULE: "CCn1cc(C(=O)O)c(=O)c2cc(F)c(N3CCN(S(=O)(=O)c4ccc(Cl)cc4Cl)CC3)cc21"
  TESTED_TARGET: "SK-OV-3"
  inhibition at 10 µM: "98.3%"
- MOLECULE: "CCn1cc(C(=O)O)c(=O)c2cc(F)c(N3CCN(S(=O)(=O)c4c(C)cc(C)cc4C)CC3)cc21"
  TESTED_TARGET: "SK-OV-3"
  inhibition at 10 µM: "< 10%"
- MOLECULE: "O=c1[nH]cc(F)c(=O)[nH]1 [Compound 5-FU, 5-fluorouracil, reference compound]"
  TESTED_TARGET: "SK-OV-3"
  inhibition at 10 µM: "77.5%"

Prompt: Please list inhibition at 10 µM recorded for the molecule Cc1cc(C)c(S(=O)(=O)N2CCN(c3cc4c(cc3F)c(=O)c(C(=O)O)cn4C3CC3)CC2)c(C)c1
Response: 18.4%

###

GI50 data for IGROV1 follow.
The figure you give is taken to be in nM; do not add the unit.

- COMPOUND: "Cc1cc(C)c(S(=O)(=O)N2CCN(c3cc4c(cc3F)c(=O)c(C(=O)O)cn4C3CC3)CC2)c(C)c1 [Compound 6b]"
  GI50 / nM: 2660
- COMPOUND: "CCn1cc(C(=O)O)c(=O)c2cc(F)c(N3CCN(S(=O)(=O)c4cccc5ccccc45)CC3)cc21 [Compound 7a]"
  GI50 / nM: 2470
- COMPOUND: "O=C(O)c1cn(C2CC2)c2cc(N3CCN(S(=O)(=O)c4ccc(Cl)c(Cl)c4)CC3)c(F)cc2c1=O [Compound 3b]"
  GI50 / nM: 2730
- COMPOUND: "CCn1cc(C(=O)O)c(=O)c2cc(F)c(N3CCN(S(=O)(=O)c4ccc(Cl)cc4Cl)CC3)cc21 [Compound 2a]"
  GI50 / nM: 2330

Prompt: Report GI50 for CCn1cc(C(=O)O)c(=O)c2cc(F)c(N3CCN(S(=O)(=O)c4ccc(Cl)cc4)CC3)cc21 [Compound 1a]
Response: 3140

###

Test system: colon cancer
Experiment: NCI five-dose SRB assay, subpanel average
Conditions: average over colon cancer subpanel, five concentrations, 48 h
Reported TGI (total growth inhibitory) by item:
Write the value in µM as a bare number.

Here is how some compounds turned out for TGI (total growth inhibitory).
- INPUT_SMILES: "CCn1cc(C(=O)O)c(=O)c2cc(F)c(N3CCN(S(=O)(=O)c4ccc(Cl)cc4)CC3)cc21"
  READOUT_UNITS: "µM"
  TEST_RESULT: 73.15
- INPUT_SMILES: "CCn1cc(C(=O)O)c(=O)c2cc(F)c(N3CCN(S(=O)(=O)c4ccc(Cl)cc4Cl)CC3)cc21"
  READOUT_UNITS: "µM"
  TEST_RESULT: 72.89
- INPUT_SMILES: "O=C(O)c1cn(C2CC2)c2cc(N3CCN(S(=O)(=O)c4ccc(Cl)c(Cl)c4)CC3)c(F)cc2c1=O"
  READOUT_UNITS: "µM"
  TEST_RESULT: 87.41

Next up:
Prompt: Please look at CCn1cc(C(=O)O)c(=O)c2cc(F)c(N3CCN(S(=O)(=O)c4cccc5ccccc45)CC3)cc21 and tell me its recorded TGI (total growth inhibitory) on colon cancer.
Response: 67.85

###

Test system: CNS cancer
Assay: NCI five-dose SRB assay, subpanel average
Conditions: average over CNS cancer subpanel, five concentrations, 48 h
METRIC_NAME: TGI (total growth inhibitory) (µM)
Answer format: numeric, µM implied, no suffix.

Sample answers from the record:
- MOLECULE: "CCn1cc(C(=O)O)c(=O)c2cc(F)c(N3CCN(S(=O)(=O)c4cccc5ccccc45)CC3)cc21 [Compound 7a]"
  READOUT_UNITS: "µM"
  TEST_RESULT: 63.40
- MOLECULE: "CCn1cc(C(=O)O)c(=O)c2cc(F)c(N3CCN(S(=O)(=O)c4ccc(Cl)cc4Cl)CC3)cc21 [Compound 2a]"
  READOUT_UNITS: "µM"
  TEST_RESULT: 34.84

Now take the following molecule into account.
Prompt: Given CCn1cc(C(=O)O)c(=O)c2cc(F)c(N3CCN(S(=O)(=O)c4ccc(Cl)cc4)CC3)cc21 [Compound 1a] , respond with its TGI (total growth inhibitory).
Response: 70.26

###

Test system: MDA-MB-231/ATCC
Test: NCI one-dose SRB growth assay
Type: cell-based
Conditions: Homo sapiens; MDA-MB- 231/ATCC (Breast Cancer), 10^-5 M, 48 h; read-out: % Growth Inhibition (GI %)
inhibition at 10 µM for assorted molecules
Report only the number, with the unit % understood.

- MOLECULE: "CCn1cc(C(=O)O)c(=O)c2cc(F)c(N3CCN(S(=O)(=O)c4c(C)cc(C)cc4C)CC3)cc21"
  inhibition at 10 µM, %: 16.3
- MOLECULE: "CCn1cc(C(=O)O)c(=O)c2cc(F)c(N3CCN(S(=O)(=O)c4cccc5ccccc45)CC3)cc21"
  inhibition at 10 µM, %: 76.1
- MOLECULE: "CCn1cc(C(=O)O)c(=O)c2cc(F)c(N3CCN(S(=O)(=O)c4ccc(Cl)cc4)CC3)cc21"
  inhibition at 10 µM, %: 58.9

Okay, now this molecule:
Prompt: State the measured inhibition at 10 µM (MDA-MB-231/ATCC) of O=c1[nH]cc(F)c(=O)[nH]1 [Compound 5-FU, 5-fluorouracil, reference compound]
Response: 78.1

###

System: HS 578T
// NB: equality with 3000 nM counts as 0 (no); only GI50 strictly below is 1 (yes)

Example results:
- INPUT_SMILES: "O=C(O)c1cn(C2CC2)c2cc(N3CCN(S(=O)(=O)c4ccc(Cl)c(Cl)c4)CC3)c(F)cc2c1=O"
  CATEGORY: "0 (no)"
- INPUT_SMILES: "CCn1cc(C(=O)O)c(=O)c2cc(F)c(N3CCN(S(=O)(=O)c4cccc5ccccc45)CC3)cc21"
  CATEGORY: "1 (yes)"

Prompt: Item CCn1cc(C(=O)O)c(=O)c2cc(F)c(N3CCN(S(=O)(=O)c4ccc(Cl)cc4Cl)CC3)cc21 : GI50 beneath 3000 nM, strictly?
Response: 1 (yes)

Prompt: State whether 3000 nM exceeds GI50 recorded for CCn1cc(C(=O)O)c(=O)c2cc(F)c(N3CCN(S(=O)(=O)c4ccc(Cl)cc4)CC3)cc21 .
Response: 0 (no)

Prompt: Lab log: compare recorded GI50 with 3000 nM; is it strictly lower for Cc1cc(C)c(S(=O)(=O)N2CCN(c3cc4c(cc3F)c(=O)c(C(=O)O)cn4C3CC3)CC2)c(C)c1 ?
Response: 1 (yes)

###

System: SW-620
Assay: NCI one-dose SRB growth assay
Format: cell-based
Details: Homo sapiens; SW-620 (Colon Cancer), 10^-5 M, 48 h; read-out: % Growth Inhibition (GI %)
METRIC_NAME: inhibition at 10 µM (%)
// return numeric value only (unit: %, not printed)

- COMPOUND: "O=c1[nH]cc(F)c(=O)[nH]1 [Compound 5-FU, 5-fluorouracil, reference compound]"
  READOUT_UNITS: "%"
  TEST_RESULT: 50.1
- COMPOUND: "O=C(O)c1cn(C2CC2)c2cc(N3CCN(S(=O)(=O)c4ccc(Cl)c(Cl)c4)CC3)c(F)cc2c1=O"
  READOUT_UNITS: "%"
  TEST_RESULT: 79.3
- COMPOUND: "CCn1cc(C(=O)O)c(=O)c2cc(F)c(N3CCN(S(=O)(=O)c4ccc(Cl)cc4Cl)CC3)cc21"
  READOUT_UNITS: "%"
  TEST_RESULT: 83.7
- COMPOUND: "Cc1cc(C)c(S(=O)(=O)N2CCN(c3cc4c(cc3F)c(=O)c(C(=O)O)cn4C3CC3)CC2)c(C)c1"
  READOUT_UNITS: "%"
  TEST_RESULT: 20.2

Prompt: Given CCn1cc(C(=O)O)c(=O)c2cc(F)c(N3CCN(S(=O)(=O)c4cccc5ccccc45)CC3)cc21 , respond with its inhibition at 10 µM.
Response: 77.2

Prompt: Answer with the recorded inhibition at 10 µM for the compound listed here: CCn1cc(C(=O)O)c(=O)c2cc(F)c(N3CCN(S(=O)(=O)c4ccc(Cl)cc4)CC3)cc21
Response: 76

###

Target or system HOP-92: recorded GI50 listed per item.
The answer is to be given in µM; state only the numeric part.

- INPUT_SMILES: "CCn1cc(C(=O)O)c(=O)c2cc(F)c(N3CCN(S(=O)(=O)c4ccc(Cl)cc4Cl)CC3)cc21"
  METRIC_NAME: "GI50"
  TEST_RESULT: 1.22
- INPUT_SMILES: "O=C(O)c1cn(C2CC2)c2cc(N3CCN(S(=O)(=O)c4ccc(Cl)c(Cl)c4)CC3)c(F)cc2c1=O"
  METRIC_NAME: "GI50"
  TEST_RESULT: 1.54
- INPUT_SMILES: "Cc1cc(C)c(S(=O)(=O)N2CCN(c3cc4c(cc3F)c(=O)c(C(=O)O)cn4C3CC3)CC2)c(C)c1"
  METRIC_NAME: "GI50"
  TEST_RESULT: 1.52

Next up:
Prompt: # return GI50 of CCn1cc(C(=O)O)c(=O)c2cc(F)c(N3CCN(S(=O)(=O)c4cccc5ccccc45)CC3)cc21 (system: HOP-92)
Response: 1.25

Data origin: patent EP2987533B1
